# test-target: 3-oxo-5-alpha-steroid 4-dehydrogenase 2 (Homo sapiens, UniProt P31213)
# Sequence (P31213 whole entry): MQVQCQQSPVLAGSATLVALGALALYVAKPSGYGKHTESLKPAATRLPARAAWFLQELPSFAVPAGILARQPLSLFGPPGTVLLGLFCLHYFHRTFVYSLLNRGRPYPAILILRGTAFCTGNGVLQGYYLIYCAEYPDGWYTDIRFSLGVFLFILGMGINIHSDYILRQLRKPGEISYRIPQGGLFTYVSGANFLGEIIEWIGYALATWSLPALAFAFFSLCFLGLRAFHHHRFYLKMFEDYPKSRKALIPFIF
pIC50: −log10 of the molar value.
outcome-measure: pIC50

[a] CN1C(=O)CCC2C3CC[C@H]4C[C@@H](O)CC[C@]4(C)C3CC[C@@]21C (some centres undefined)
[b] CN1C(=O)CCC2C3CC=C4C[C@@H](O)CC[C@]4(C)C3CC[C@@]21C (some centres undefined)
[c] CN1C(=O)CCC2C3CCC4[C@@H](O)CC[C@]4(C)C3CC[C@@]21C (some centres undefined)
Which order do the above compounds take when sorted by rising pIC50? Smallest first. Note for the reader: the ranking is given by listing the labels in the order requested.
b, c, a
(b: 4.49, c: 4.92, a: 5.40)

Hello, the source for this data is ChEMBL document CHEMBL1127773, in case you need it.
